Let's look at some compounds and their measured viability at 28.5 h, 10 µM.
assay: in vitro; settings: human, hela cells, % viability
Give the value in % but do not write % after it.

Use the examples below as a reference point.
Compound	Unit abbrev	viability at 28.5 h, 10 µM
COc1cc(CN2CCN(Cc3cccc([N+](=O)[O-])c3)CC2)cc(OC)c1 [CBK263156]	%	95
Cc1nn(C)c(Cl)c1S(=O)(=O)NCc1ccc(C(F)(F)F)c(F)c1 [CBK062111]	%	93.8

Tell me measured viability at 28.5 h, 10 µM for COc1ccc(-c2n[nH]c(=S)n2CC(=O)Nc2nc(-c3ccc(C)cc3C)cs2)cc1 [CBK295316] please. 96.9

Tell me measured viability at 28.5 h, 10 µM for Cc1oc2ccc(O)cc2c1C(=O)N(C)CCOc1ccccc1 [CBK282696] please. 111

Tell me measured viability at 28.5 h, 10 µM for Cn1c(CN2CCCC2)nc2cc(NC(=O)c3cccc([N+](=O)[O-])c3)ccc21 [CBK268316] please. 98.6

----------
test: in vitro; details: human, hela cells, % viability
Property: viability at 28.5 h, 10 µM (%)
Give the value in % but do not write % after it.

Molecule	Property	Unit abbrev	Experimental value
Cc1ccc(C)c(NC(=O)CSc2nnc(CCc3ccccc3)n2C)c1 [CBK266365]	viability at 28.5 h, 10 µM	%	93.7
CCOc1ccc(NC(=O)C(C)O)c(NS(=O)(=O)c2ccc3ccccc3c2)c1 (stereo not drawn) [CBK268309]	viability at 28.5 h, 10 µM	%	87.6
COc1ncc(-c2nccnc2NCc2cccc([N+](=O)[O-])c2)c(OC)n1 [CBK036680]	viability at 28.5 h, 10 µM	%	97.7
CCN(Cc1ccco1)C(=O)Cn1c(=O)n(C)c2ncccc21 [CBK282390]	viability at 28.5 h, 10 µM	%	99.3
COCCn1c(SC)nc2sc(-c3ccccc3)cc2c1=O [CBK295200]	viability at 28.5 h, 10 µM	%	89.8

Tell me measured viability at 28.5 h, 10 µM for O=C(COc1ccccc1Cl)Nc1cccc(NC(=O)c2cccc(Cl)c2)c1 [CBK263651] please. 106

Tell me measured viability at 28.5 h, 10 µM for O=C(Cn1cc(-c2ccc(CN3CCCCC3)cc2)nn1)NCc1ccc(C2CCC2)cc1 [CBK167547] please. 86.6

Tell me measured viability at 28.5 h, 10 µM for Nc1c(C(=O)c2ccc3c(c2)OCO3)sc2nc(-c3cccnc3)ccc12 [CBK270186] please. 86.3

Tell me measured viability at 28.5 h, 10 µM for CC(C)Oc1cc(Br)cc(C(=O)N2CCC(C(=O)O)C2)c1 (stereo not drawn) [CBK304268C] please. 92.6

----------
test: in vitro; conditions: human, hela cells, % viability
Let's look at some compounds and their measured viability at 28.5 h, 10 µM.
Give the value in % but do not write % after it.

Use the examples below as a reference point.
Compound	Property	Unit abbrev	Experimental value
Cc1ccc2[nH]c3c(c2c1)CCNCC3	viability at 28.5 h, 10 µM	%	98.3
O=C(NCCc1ccccc1)c1c(NC(=O)C2COc3ccccc3O2)sc2c1CCCC2 (stereo not shown)	viability at 28.5 h, 10 µM	%	89.8
Cc1cnn(CCC(=O)NC(Cc2ccsc2)c2nccs2)c1 (stereo not shown)	viability at 28.5 h, 10 µM	%	88.4
CCOc1c(CNCc2ccccn2)cccc1OC [CBK268104C]	viability at 28.5 h, 10 µM	%	96.9
O=C(CSc1nnc(C2CC2)o1)Nc1ccc(CN2CCOCC2)cc1	viability at 28.5 h, 10 µM	%	86

Tell me measured viability at 28.5 h, 10 µM for COc1ccc(NC(=O)CC(CN2CCN(c3ccc(Cl)cc3)CC2)C(=O)O)cc1 (stereo not shown) please. 101

Tell me measured viability at 28.5 h, 10 µM for Cc1cc(C)n(CC(C)NC(=O)c2cc(C(F)(F)F)nn2C)n1 (stereo not shown) please. 92.2

Tell me measured viability at 28.5 h, 10 µM for `O=C(NCCn1nc2c(cc1=O)CCCCC2)c1ccc(F)cc1` please. 93.3

Tell me measured viability at 28.5 h, 10 µM for `CCOC(=O)c1c(-c2ccc(Cl)cc2)csc1NC(=O)CCCC(=O)O` please. 91

Tell me measured viability at 28.5 h, 10 µM for O=C(O)C1CC(O)CN1S(=O)(=O)c1ccc(Cl)cc1 (stereo not shown) please. 86.8

Tell me measured viability at 28.5 h, 10 µM for `Cc1cc(C(=O)NCc2cccnc2N(C)C2CCCCC2)[nH]n1` please. 104

Tell me measured viability at 28.5 h, 10 µM for `Nc1ccc(S(=O)(=O)c2ccc(-n3c(=O)c4cc5c(=O)n(-c6ccc(S(=O)(=O)c7ccc(N)cc7)cc6)c(=O)c5cc4c3=O)cc2)cc1` please. 92

Tell me measured viability at 28.5 h, 10 µM for `CC(C)[C@H](Cn1nc(C2CC2)ccc1=O)NC(=O)Cc1cccs1` please. 79.7

Tell me measured viability at 28.5 h, 10 µM for `CC(=O)c1cc(C)c(C)cc1N` please. 127

Tell me measured viability at 28.5 h, 10 µM for `O=C1c2cccc3cccc(c23)C(=O)N1CCN1CCN(S(=O)(=O)c2ccccc2[N+](=O)[O-])CC1` please. 97.7

Tell me measured viability at 28.5 h, 10 µM for `COC(=O)c1ccsc1NS(=O)(=O)c1cc(F)c(Br)cc1F` please. 96.5

Tell me measured viability at 28.5 h, 10 µM for `COc1ccccc1CC(=O)N1CC[C@@H]2NC(=O)[C@H]3C[C@H](NC(=O)C4CC4)CN3C(=O)[C@H]21` please. 103

Tell me measured viability at 28.5 h, 10 µM for `O=C(Nc1ccc(Br)c2cccnc12)c1ccc(COc2ccccc2)cc1` please. 94.2

Tell me measured viability at 28.5 h, 10 µM for `CC(C)(C)c1cc(CCCOC(=O)CNC2CCCCC2)cc(C(C)(C)C)c1O` please. 89.4

// provenance: paper PMC12040169
